Assignment: determine reported optical density for the given binders.
Molecular target: human ACVR2A (human, UniProt P27037 20-135, limits assumed); further: test concentration or dose not given here
Sequence (P27037 20-135 limits assumed): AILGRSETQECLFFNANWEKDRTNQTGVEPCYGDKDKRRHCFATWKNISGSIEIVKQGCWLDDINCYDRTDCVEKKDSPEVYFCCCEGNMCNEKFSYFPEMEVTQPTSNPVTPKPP
Assay: ELISA
The response must be a number in OD with no trailing unit.

Could you please provide reported optical density for 374_C04 (antibody, V domains shown, VH/VL only) VH: EVQLLESGGGLVQPGGSLRLSCAASGFTFSSYSMNWVRQAPGKGLEWVAGINYNSGYKSYADSVKGRFTISRDNSKNTLYLQMNSLRAEDTAVYYCARSATWHDTHLDYWGQGTLVTVSS VL: DIQMTQSPSSLSASVGDRVTITCRASQSILTYLNWYQQKPGKAPKLLIYAASSLQSGVPSRFSGSGSGTDFTLTISSLQPEDFATYYCQQSYELPLTFGGGTKVEIK ? Thanks! 3.74

Read the entry 376_G08 (antibody, V domains shown, VH/VL only) VH: EVQLLESGGGLVQPGGSLRLSCAASGFTFDSYGMNWVRQAPGKGLEWVANINYNGGYTSYADSVKGRFTISRDNSKNTLYLQMNSLRAEDTAVYYCARSANWHDTALDYWGQGTLVTVSS VL: DIQMTQSPSSLSASVGDRVTITCRASQSILSYVNWYQQKPGKAPKLVIYAATSRASGVPSRFSGSGSGTDFTLTISSLQPEDFATYYCQQSYDTPLTFGGGTKVEIK and write its reported optical density. 3.69

For the binder 375_D04 (antibody, V domains shown, VH/VL only) VH: EVQLLESGGGLVQPGGSLRLSCAASGFTFDDSSMHWVRQAPGKGLEWVSNINYNGGYTGYADSVKGRFTISRDNSKNTLYLQMNSLRAEDTAVYYCAKSANWHDTALDYWGQGTLVTVSS VL: DIQMTQSPSSLSASVGDRVTITCRASQSILSYVNWYQQKPGKAPKLVIYAATSRASGVPSRFSGSGSGTDFTLTISSLQPEDFATYYCQQSYELPLTFGGGTKVEIK , give its measured optical density value. 3.69

For the binder 370_B05 (antibody, V domains shown, VH/VL only) VH: EVQLLESGGGLVQPGGSLRLSCAASGFTFSSYGMNWVRQAPGKGLEWVASINYNGGYTSYADSVKGRFTISRDNSKNTLYLQMNSLRAEDTAVYYCARSATWHDTHLDYWGQGTLVTVSS VL: DIQMTQSPSSLSASVGDRVTITCRASQSILTYVNWYQQKPGKAPKLVIYAATSRASGVPSRFSGSGSGTDFTLTISSLQPEDFATYYCQQSYENPLTFGGGTKVEIK , give its measured optical density value. 2.84

Please give measured optical density of the following entry: 373_H06 (antibody, V domains shown, VH/VL only) VH: EVQLLESGGGLVQPGGSLRLSCAASGFTFSSYGMHWVRQAPGKGLEWVAGINYNGGYTSYADSVKGRFTISRDNSKNTLYLQMNSLRAEDTAVYYCARSATWHDTHLDYWGQGTLVTVSS VL: DIQMTQSPSSLSASVGDRVTITCRASQSIISYVNWYQQKPGKAPKLLIYAATSLASGVPSRFSGSGSGTDFTLTISSLQPEDFATYYCQQSYDLPLTFGGGTKVEIK 3
